Molecular target: UniProt P06401
Sequence (P06401 whole entry): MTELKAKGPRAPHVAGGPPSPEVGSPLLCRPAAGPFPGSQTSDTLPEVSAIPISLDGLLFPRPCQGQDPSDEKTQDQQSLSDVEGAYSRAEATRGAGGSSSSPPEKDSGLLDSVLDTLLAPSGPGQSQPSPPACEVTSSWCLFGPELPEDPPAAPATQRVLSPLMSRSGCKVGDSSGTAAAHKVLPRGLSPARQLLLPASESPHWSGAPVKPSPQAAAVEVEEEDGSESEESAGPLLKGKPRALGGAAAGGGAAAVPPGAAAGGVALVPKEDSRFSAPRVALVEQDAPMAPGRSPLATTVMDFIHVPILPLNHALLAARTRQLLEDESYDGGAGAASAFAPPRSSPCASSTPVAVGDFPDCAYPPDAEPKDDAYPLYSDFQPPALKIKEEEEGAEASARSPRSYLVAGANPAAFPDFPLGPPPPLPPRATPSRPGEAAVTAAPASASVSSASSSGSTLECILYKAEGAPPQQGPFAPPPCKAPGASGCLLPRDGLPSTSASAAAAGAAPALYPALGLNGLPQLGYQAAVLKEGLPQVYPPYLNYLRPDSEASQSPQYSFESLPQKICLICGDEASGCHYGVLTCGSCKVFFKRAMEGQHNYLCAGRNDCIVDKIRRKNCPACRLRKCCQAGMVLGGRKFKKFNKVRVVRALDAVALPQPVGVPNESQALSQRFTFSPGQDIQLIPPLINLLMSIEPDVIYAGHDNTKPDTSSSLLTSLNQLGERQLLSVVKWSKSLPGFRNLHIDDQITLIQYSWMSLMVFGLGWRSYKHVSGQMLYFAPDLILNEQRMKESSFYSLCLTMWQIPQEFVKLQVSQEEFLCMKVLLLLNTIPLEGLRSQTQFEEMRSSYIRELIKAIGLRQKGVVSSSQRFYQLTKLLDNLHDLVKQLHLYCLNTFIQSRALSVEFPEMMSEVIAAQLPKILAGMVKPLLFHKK
Test: Compound was tested for agonistic activity by cotransfection assay against human Progesterone receptor in CV-1 cells
Format: functional, cell-based
Note that class boundaries on EC50 are band A (below 10 nM), band B (10 nM to below 50 nM), band C (50 nM or more)

See these solved cases before continuing.
compound | classification
CC1CC(C)(C)Nc2ccc3c(c21)/C(=C/c1cccc(F)c1)Oc1ccccc1-3 (centres undefined) | band B
CC1C(=O)C(C)(C)Nc2ccc3c(c21)/C(=C/c1ccccc1)Oc1ccccc1-3 (centres undefined) | band B
C=C1CC(C)(C)Nc2ccc3c(c21)C(c1ccc(Cl)cc1)Oc1ccccc1-3 (centres undefined) | band C
C[C@@H]1C(=O)C(C)(C)Nc2ccc3c(c21)[C@H](c1cccc(C(F)(F)F)c1)Oc1ccccc1-3 | band B
CC1C(=O)C(C)(C)Nc2ccc3c(c21)/C(=C/c1cccc(F)c1)Oc1ccccc1-3 (centres undefined) | band A
C[C@@H]1C(=O)C(C)(C)Nc2ccc3c(c21)[C@H](c1cccc(F)c1)Oc1ccccc1-3 | band A

// bin(item) where item = CC1(C)C=Cc2c(ccc3c2C(c2ccc(Cl)cc2)Oc2ccccc2-3)N1 (centres undefined)
band C

// bin(item) where item = `C[C@H]1CC(C)(C)Nc2ccc3c(c21)[C@H](c1ccc(Cl)cc1)Oc1ccccc1-3`
band B

###

Give pKi for every item shown.
Target: Glucocorticoid receptor (Homo sapiens, UniProt P04150)
Sequence (P04150 whole entry): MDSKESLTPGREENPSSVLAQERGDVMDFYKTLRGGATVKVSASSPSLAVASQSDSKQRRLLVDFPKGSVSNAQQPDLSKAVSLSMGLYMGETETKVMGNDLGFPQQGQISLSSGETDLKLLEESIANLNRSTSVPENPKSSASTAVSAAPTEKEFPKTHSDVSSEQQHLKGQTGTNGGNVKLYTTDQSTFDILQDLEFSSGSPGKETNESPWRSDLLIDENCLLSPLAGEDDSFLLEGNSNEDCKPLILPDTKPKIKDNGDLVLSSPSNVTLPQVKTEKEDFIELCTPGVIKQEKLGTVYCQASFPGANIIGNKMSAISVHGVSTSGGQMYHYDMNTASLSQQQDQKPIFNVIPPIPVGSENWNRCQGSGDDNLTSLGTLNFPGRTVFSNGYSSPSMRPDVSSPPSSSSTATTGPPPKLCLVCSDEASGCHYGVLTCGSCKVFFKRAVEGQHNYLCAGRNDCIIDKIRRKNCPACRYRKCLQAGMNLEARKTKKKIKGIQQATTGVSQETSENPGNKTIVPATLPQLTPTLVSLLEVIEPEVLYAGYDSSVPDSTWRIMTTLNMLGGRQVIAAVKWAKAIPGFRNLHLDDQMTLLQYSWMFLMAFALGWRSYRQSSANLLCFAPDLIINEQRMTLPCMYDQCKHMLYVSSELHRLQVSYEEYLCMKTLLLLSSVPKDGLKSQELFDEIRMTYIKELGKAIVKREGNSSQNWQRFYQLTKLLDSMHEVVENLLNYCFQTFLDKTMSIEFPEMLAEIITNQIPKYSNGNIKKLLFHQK
Numbers only, as −log10 of the molar value.

compound | pKi
C[C@@H]1C(=O)C(C)(C)Nc2ccc3c(c21)[C@H](c1ccc(Cl)cc1)Oc1ccccc1-3 | 6.48
C[C@H]1C(=O)C(C)(C)Nc2ccc3c(c21)[C@H](c1cccc(C(F)(F)F)c1)Oc1ccccc1-3 | 6.60
CC1C(=O)C(C)(C)Nc2ccc3c(c21)/C(=C/c1ccccc1)Oc1ccccc1-3 (centres undefined) | 6.17

Next compound, pKi to be filled in.
Quick check: pKi on Glucocorticoid receptor (Homo sapiens, UniProt P04150), item CC1C(=O)C(C)(C)Nc2ccc3c(c21)/C(=C/c1cccc(F)c1)Oc1ccccc1-3 (centres undefined) ?
5.33

###

molecular target: Progesterone receptor (Homo sapiens); test: Antagonistic activity by cotransfection assay against human Progesterone receptor in CV-1 cells
parameter measured: pIC50
Answers are plain numbers, as −log10 of the molar value.

Here is how some compounds turned out for pIC50.
compound | target system | pIC50
CC1(C)CC(=O)c2c(ccc3c2C(c2ccc(Cl)cc2)Oc2ccccc2-3)N1 (stereo unspecified) | Progesterone receptor (Homo sapiens) | 6.42
C[C@H]1c2c(ccc3c2[C@H](c2ccc(Cl)cc2)Oc2ccccc2-3)NC(C)(C)[C@@H]1O | Progesterone receptor (Homo sapiens) | 6.34
C=C1CC(C)(C)Nc2ccc3c(c21)C(c1ccc(Cl)cc1)Oc1ccccc1-3 (stereo unspecified) | Progesterone receptor (Homo sapiens) | 5.76

For the 3 compounds below, give their pIC50 values.
1. CC1(C)C=Cc2c(ccc3c2C(c2ccc(Cl)cc2)Oc2ccccc2-3)N1 (stereo unspecified)
2. C[C@@H]1CC(C)(C)Nc2ccc3c(c21)[C@H](c1ccc(Cl)cc1)Oc1ccccc1-3
3. C[C@@H]1c2c(ccc3c2[C@H](c2ccc(Cl)cc2)Oc2ccccc2-3)NC(C)(C)[C@H]1O

1: 6.85; 2: 5.51; 3: 5.49

###

Biological target: Progesterone receptor (Homo sapiens)
Sequence (P06401 whole entry): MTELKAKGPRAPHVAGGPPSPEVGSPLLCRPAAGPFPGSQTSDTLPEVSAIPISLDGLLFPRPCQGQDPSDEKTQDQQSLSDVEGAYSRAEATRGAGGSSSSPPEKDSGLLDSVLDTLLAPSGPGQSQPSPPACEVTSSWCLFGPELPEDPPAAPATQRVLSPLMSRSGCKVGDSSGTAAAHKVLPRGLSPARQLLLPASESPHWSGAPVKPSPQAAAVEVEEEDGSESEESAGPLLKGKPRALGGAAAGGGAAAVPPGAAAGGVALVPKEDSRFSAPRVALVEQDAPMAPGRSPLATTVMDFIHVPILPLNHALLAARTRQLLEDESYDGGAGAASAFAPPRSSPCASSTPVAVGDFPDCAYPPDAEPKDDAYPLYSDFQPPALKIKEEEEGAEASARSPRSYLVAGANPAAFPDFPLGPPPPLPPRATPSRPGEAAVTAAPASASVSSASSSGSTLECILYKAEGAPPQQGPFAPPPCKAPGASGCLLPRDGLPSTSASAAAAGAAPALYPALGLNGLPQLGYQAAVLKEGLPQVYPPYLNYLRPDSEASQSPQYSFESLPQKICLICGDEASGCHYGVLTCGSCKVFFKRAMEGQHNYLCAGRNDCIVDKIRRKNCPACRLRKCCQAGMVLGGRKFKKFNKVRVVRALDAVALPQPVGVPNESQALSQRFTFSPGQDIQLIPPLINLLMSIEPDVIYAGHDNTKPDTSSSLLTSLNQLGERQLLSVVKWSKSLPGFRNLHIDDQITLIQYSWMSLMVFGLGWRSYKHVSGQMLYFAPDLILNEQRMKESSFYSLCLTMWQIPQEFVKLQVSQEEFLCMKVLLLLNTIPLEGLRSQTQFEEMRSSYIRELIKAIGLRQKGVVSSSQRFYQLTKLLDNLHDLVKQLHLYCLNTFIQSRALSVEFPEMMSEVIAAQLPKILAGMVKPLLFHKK
Test: Agonistic activity by cotransfection assay against human Progesterone receptor in T47D cells
Type: functional, cell-based
Give EC50 for every item shown.
Answers are plain numbers, in µM.

Here is how some molecules turned out for EC50.
molecule | target system | EC50 / µM
C[C@@H]1C(=O)C(C)(C)Nc2ccc3c(c21)[C@H](c1ccccc1)Oc1ccccc1-3 | Progesterone receptor (Homo sapiens) | 0.0235
CC1C(=O)C(C)(C)Nc2ccc3c(c21)/C(=C/c1ccccc1)Oc1ccccc1-3 (stereo not given) | Progesterone receptor (Homo sapiens) | 0.0183

For the 5 molecules below, give their EC50 values.
1. C[C@@H]1C(=O)C(C)(C)Nc2ccc3c(c21)[C@H](c1cccc(C(F)(F)F)c1)Oc1ccccc1-3
2. C[C@H]1C(=O)C(C)(C)Nc2ccc3c(c21)[C@H](c1ccccc1)Oc1ccccc1-3
3. CC1=CC(C)(C)Nc2ccc3c(c21)C(c1cccc(Cl)c1)Oc1ccc(F)cc1-3 (stereo not given)
4. C[C@H]1C(=O)C(C)(C)Nc2ccc3c(c21)[C@H](c1cccc(C(F)(F)F)c1)Oc1ccccc1-3
5. C[C@H]1C(=O)C(C)(C)Nc2ccc3c(c21)[C@H](c1cccc(F)c1)Oc1ccccc1-3

1: 0.037; 2: 0.035; 3: 0.027; 4: 0.063; 5: 0.026

For the 3 molecules below, give their EC50 values.
1. C[C@@H]1C(=O)C(C)(C)Nc2ccc3c(c21)[C@H](c1cccc(F)c1)Oc1ccccc1-3
2. CC1=CC(C)(C)Nc2ccc3c(c21)/C(=C/c1cccc(F)c1)Oc1ccccc1-3
3. CC1C(=O)C(C)(C)Nc2ccc3c(c21)/C(=C/c1cccc(F)c1)Oc1ccccc1-3 (stereo not given)

[0.0148, 0.051, 0.025]
